Just for reference, patent US10925971B2 is where these values come from.

tested on: MCF7/PRLR tumors; experiment: MCF7/PRLR breast cancer xenograft, tumor size and tumor growth inhibition; format: in vivo, NCr nude mice; conditions: MCF7/PRLR tumors TRIAL #1; NCr Nude mice; multi-dose 15 mg/kg; Day 52
endpoint: Final Tumor size mm^3 (mean ± SEM) (mm^3)
Numbers only; they are read as mm^3.

Inquiry: Quick one: Final Tumor size mm^3 (mean ± SEM) of H1H6958N2-DM1: anti-PRLR antibody H1H6958N2 conjugated to the maytansinoid DM1 through an SMCC linker (conjugate) VH: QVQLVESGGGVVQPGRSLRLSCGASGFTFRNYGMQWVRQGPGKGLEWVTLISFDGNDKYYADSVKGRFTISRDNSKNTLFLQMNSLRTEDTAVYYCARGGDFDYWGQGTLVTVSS VL: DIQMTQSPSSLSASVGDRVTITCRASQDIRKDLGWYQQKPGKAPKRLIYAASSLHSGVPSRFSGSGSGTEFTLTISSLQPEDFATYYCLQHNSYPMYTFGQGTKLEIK ?
Reply text: 0
